- Test Protocol: Phase 1 Part B: effect of CYP3A4 inhibitor cobicistat on PK of Compound I (HME) in healthy subjects
- Type: in vivo, human
- Run Conditions: human, in vivo, oral; Compound I 300 mg single dose alone, Part B, HME, fasted, N = 8; geometric mean (% CV)
Endpoint: AUC(0-inf) (ng·h/mL)

- O=C(c1c(F)ccc(NS(=O)(=O)N2CC[C@@H](F)C2)c1F)c1c[nH]c2ncc(-c3cnc(C4CC4)nc3)cc12: 16400

###

- Test Protocol: Phase 1 Part B: effect of CYP3A4 inhibitor cobicistat on PK of Compound I (HME) in healthy subjects
- Type: in vivo, human
- Run Conditions: human, in vivo, oral, 300 mg, Compound I 300 mg single dose alone, Part B, HME, fasted, N = 8; geometric mean (% CV); read-out: AUC0-t
Endpoint: AUC(0-t) (ng·h/mL)

• O=C(c1c(F)ccc(NS(=O)(=O)N2CC[C@@H](F)C2)c1F)c1c[nH]c2ncc(-c3cnc(C4CC4)nc3)cc12 [Compound I] = 16200
